Target: T1, TX1BP3, O14907
T1 sequence (O14907 10-122, limits assumed, looked up): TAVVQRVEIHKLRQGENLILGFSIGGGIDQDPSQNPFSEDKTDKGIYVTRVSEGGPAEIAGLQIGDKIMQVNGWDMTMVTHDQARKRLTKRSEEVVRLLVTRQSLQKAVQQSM
Assay: holdup assay
Parameters: key: below the threshold = too weak to quantify, mostly under pKd 3.1 to 4
Conditions: plain residues with an end cap or a label only (N-terminal biotin on a linker: ttds)
Label yes when pKd >= 4; otherwise no.

KLVIKTETTV [RASSF6, Q6ZTQ3] :: no
SGGKRKETLV [NET1, Q7Z628] :: yes
PPRQRSETQV [HPV82-E6, Q9IR59] :: yes
QRPYRRESEI [KCNJ12, Q14500] :: yes
PSRDRKETSI [RALBP1, Q15311] :: yes
PFRSRSPSEV [GPR6, P46095] :: no

All values here come from paper PMC9482650.
